Assay Details: Inhibition of Saccharomyces cerevisiae alpha-glucosidase using p-nitrophenyl-alpha-D-glucopyranoside as substrate preincubated for 10 mins followed by substrate addition and measured after 20 mins by spectrophotometric analysis
Reported Metric: Ki (µM)
Write the value in µM as a bare number.

**Q:** For the molecule "O=c1c2ccccc2nc(SCc2cn(Cc3ccc(Br)cc3)nn2)n1CCc1ccccc1" , what Ki is on record?
**A:** 117

###

Experimental System: UniProt:P81908
Sequence (P81908 whole entry): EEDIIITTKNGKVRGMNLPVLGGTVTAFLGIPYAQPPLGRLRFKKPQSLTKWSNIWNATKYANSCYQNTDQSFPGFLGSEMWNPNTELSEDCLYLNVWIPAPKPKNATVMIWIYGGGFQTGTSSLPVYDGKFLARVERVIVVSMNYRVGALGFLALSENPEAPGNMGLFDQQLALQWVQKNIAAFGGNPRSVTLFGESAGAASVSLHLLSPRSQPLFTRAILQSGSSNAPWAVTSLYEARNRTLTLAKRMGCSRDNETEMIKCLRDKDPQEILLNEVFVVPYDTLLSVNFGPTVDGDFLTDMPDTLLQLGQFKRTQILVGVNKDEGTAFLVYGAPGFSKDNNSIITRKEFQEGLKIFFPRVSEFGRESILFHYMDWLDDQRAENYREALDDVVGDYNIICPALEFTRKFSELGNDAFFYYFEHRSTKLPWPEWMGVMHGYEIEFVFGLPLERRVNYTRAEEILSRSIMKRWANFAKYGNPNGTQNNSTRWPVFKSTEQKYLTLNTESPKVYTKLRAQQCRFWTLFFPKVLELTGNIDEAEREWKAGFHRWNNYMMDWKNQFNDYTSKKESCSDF
Assay Details: Inhibition of equine serum BuChE using butyrylthiocholine iodide as substrate preincubated for 3 mins followed by substrate addition by Ellman's method
Reported Metric: IC50 (µM)
Write the value in µM as a bare number.

**Q:** For the compound O=C(CCCCC1CCSS1)NCc1cn(CCCCOc2ccc(-c3cc4c(ccc5ccccc54)oc3=O)cc2)nn1 (stereo unspecified) , what IC50 is on record?
**A:** 68.6
